Assay Procedure: soluble on expression in E. coli; label from the status in PepcDB or PDB records
Recorded Endpoint: soluble on expression in E. coli

residue_codes=MSLNIIERQKLTQSLKLSQMMKLSINILKMSVMDLNKFIEKEFSEDSGISVELNYSKKENFNGGKEAEMNYPTDEKNFFQILEEQLSYFKINKKIKEICIFIINNLDKKGYLELSKIEIKDILEVSNKELEEAFDIIHNLEPYGIGAYSLEECLKIQLKAKKIIEEKLSLFIDNYLYLLADKKYDLIKEKLNINDNILFSYIDIIKSLNPIPSRGYSVGKVRKIIPDVLVEIKKNEIFYEINRASIPQINVKDKIEDEGHHHHHH observed_result="not soluble"
residue_codes=GVDGCGSVTLAYDGFNVNLLHSKVSDSLIPSEFQGEQGSVLVDMIATGRGVERILRGEEKETLTLPQTENHMFYEAEAFAKQLKLGVIDEQMKQRSLTVAKVLTEVRKQTGVVFPADQ observed_result="not soluble"

###

Assay Procedure: soluble on expression in E. coli; label from the status in PepcDB or PDB records
Recorded Endpoint: soluble on expression in E. coli

Field: example entries. Status: answers known.
residue_codes=MRRNKRERQELLQQTIQATPFITDEELAGKFGVSIQTIRLDRLELSIPELRERIKNVAEKTLEDEVKSLSLDEVIGEIIDLELDDQAISILEIKQEHVFSRNQIARGHHLFAQANSLAVAVIDDELALTASADIRFTRQVKQGERVVAKAKVTAVEKEKGRTVVEVNSYVGEEIVFSGRFDMYRSKHSLEHHHHHH observed_result=soluble
residue_codes=MSLVEELLKITLKSDELHRRLGGGIPAGTIMLIEGDRGTGKSILSQRLLYGFLMNGYTSSYVSSQYTTVEYIKQMMSISYDVIPFLIRKKLVFVSLYPLLSGVSEERKFLSRLLGEPRLWDQDVVIIDSFSSVLSREQDVRAVRNFLMYIKKLSSLGKVIILTANPEELSRDVMFLLEEASTLLIRLNVRVFGGDLKNSATIVKYNNAKGAFQKIIPFRVEPKVGLVVEIAAVVEGHHHHHH observed_result=soluble
residue_codes=PSTVSHFMAFNPKNDVLNQRTIREAISKSIDAKDIAGKSVNGLFQKNVQFVTKNNQQPHDYDMKAAERLLKSEGYHKNDDGIFEKNGKPLSFNLVIQTAEFPNWKDKAEKVQRQLKQAGIKLNVKTLDSQSYYDTLWTKKDYDLIFYRTYSDALMPYNFISSVFKNNDGQPGVLADDETLTKQLDDFPSTVSKEDQQCSFDDIFKHFNQQYYGVPIAYPNETFVVSDKV observed_result=soluble
residue_codes=MGSDKIHHHHHHMGKKYDVYGVGNALVDIEYEVSPELLQELKIDKGVMTLLDEDSQNHILENLKNLHCHKSCGGSAANTMVAISQLGGKAFYSCKVANDEFGDFYIEDLLNSQVDTNLKNGDRQSGITGKCLVLVTPDADRTMNTFLGITEKFSTQELVSSALADSEYIYIEGYLVTSPTAKEAAIKAREIAEKAGVKTAMSLSDYNMVKFFKDGLLDIIGPGLDLIFANESEALELADTQDFQVAVDKLKTLSKKFAITRGSKGSVVFDGQELIEIAAPQVKAIDTVGAGDMYAGAFLYGITQSMSYEEAGKLASTAASKIVTSYGPRLKTEELKALVSA observed_result="not soluble"
residue_codes=MSLGQKVVAMLDFLLAYSDYSKDFRPLIIDQPEDNLDNRYIYRHLVQQFRDVKAQRQIILATHNATIVTNSMTDQVVIMESDGVNGWIESQGYVSEKYIKNHIINQLEGGKDSFKHKMSIYETALSEGHHHHHH observed_result="not soluble"

Here is another sequence to look at.
Req: Request the reported soluble on expression in E. coli associated with `MRIAANACPALVLNADFQPLSYFPLSLWSWQEAVKAVFMDRVCVVSEYDRVVHSPSLDLSLPSVISLKEYVPVAKRAAFTRFNVFLRDGFACQYCGIRLPAHDLTFDHVVPRSKGGVTAWNNVVTACGPCNMRKANRTPREAAMPLLQRPAEPSTHRLRNEGRSFPPGYLHESWRDFLYWDVELDPFLEHHHHHH`
Resp: not soluble

###

Assay Procedure: soluble on expression in E. coli; label from the status in PepcDB or PDB records
Recorded Endpoint: soluble on expression in E. coli

Field: example entries. Status: answers known.
residue_codes=MGSDKIHHHHHHMTSVEAFRGLYYPNKIGRLCFLSLEEVMGQNGVKALLRLADLQQYIDAYPPNDLKREFPFEAISKYSVALGTMYGPRGARGLELRAGRVAFSLGLKEFGPLLGMADLALKLMPITMKLKIVLNATAQTFDRFSDQSSHVEEERGRFVYHITRCSNCITRPEPGPVFYIARGILEEATAWVSGGRRFAVEQLSCMGQGNCSSCAFAIGKDPLE observed_result="not soluble"
residue_codes=MGSDKIHHHHHHMLQFIPVFDGNTIAVRASGKLTLEDFQQFFPQLETQIKRLGKISLLFEFDNFSGWDLDAAIDDIKFGMKHLSDFERIAMVGDKSWEHWMALIAKPFLISSEVRYFNRENLQQAWDWLREKQEFEKAVEQLQPYQNIVVAVDFSLYSKHACKRAIELANYYQASLTLLNVVPEVLAYTLYGDPVGYNVVDLDIIKDQNKKNIDAAQFQMKAFVNDLDTNFPIETKVICGEINYGVVSFLEAQHIDLAIFGAKKKKGINKLLGSVPHYVQNHSRCEILIVPVQGPVF observed_result="not soluble"
residue_codes=MGSDKIHHHHHHMQTLKRGFAVAALLFSPLTMAQDINAQLTTWFSQRLAGFSDEVVVTLRSSPNLLPSCEQPAFSMTGSAKLWGNVNVVARCANEKRYLQVNVQATGNYVAVAAPIARGGKLTPANVTLKRGRLDQLPPRTVLDIRQIQDAVSLRDLAPGQPVQLTMIRQAWRVKAGQRVQVIANGEGFSVNAEGQAMNNAAVAQNARVRMTSGQIVSGTVDSDGNILINL observed_result="not soluble"
residue_codes=MLSTGTKSLDSLLGGGFAPGVLTQVYGPYASGKTTLALQTGLLSGKKVAYVDTEGGFSPERLVQMAETRGLNPEEALSRFILFTPSDFKEQRRVIGSLKKTVDSNFALVVVDSITAHYRAEENRSGLIAELSRQLQVLLWIARKHNIPVIVINQVHFDSRTEMTKPVAEQTLGYRCKDILRLDKLPKPGLRVAVLERHRFRPEGLMAYFRITERGIEDVE observed_result=soluble
residue_codes=MINLPAEGHVNPTLSLVKAFTERGDHVHYITTEHFKGRIEDLGATVYTHPDLLKDISIDTETSYGLNSFFHVHVQTSLYILEITKQLCESINFDFVIYDIFGAGELVKEYLQIPGIVSSPIFLIPTEFLETLPFHPNAEIPFQPDEISEQLLYRMEHEFGVKPKNNLQFMHNKGDITLVYTSRYFQPNSDLFGENNIFIGPSISKRKTNVEFPLELLKGKKVIYISMGTLLEGLEPFFNTCIDTFSDFKGVVVMAIGDRNDRSKIKKAPDNFIIASYVLQSEILNEADVFITHGGMNSVHDAIYFNVPFVIIPHDKDQPMIAQRLTELEAAHRLLKEHVNVQSLKEAVTDVLLNEKYKHGIRKLKDSFLQCGGAKEAISVIKSLLNK observed_result="not soluble"

Req: Request the reported soluble on expression in E. coli associated with `MSTAQAVKIGIAEMEVVIAPNVIRTCGLGSCVGVVIYDAGKAVAGMAHVMLPHSSMARGGVINAAKYADTAVEALVQLVIAAGGRKGMLKAKLAGGAQMFSFSTVGGDMMRIGARNVEEVKKQLERLHIPVVAEDVGGHSGRTIEFNPQTGVLSIRTAAQEIKEI`
Resp: not soluble

Req: Follow-up entry: `MVIGVPKEIKTLENRVALTPGGVESLVRRGHTVLVERGAGEGSGLSDAEYARAGAELVGREEAWGAEMVVKVKEPLPEEYGFLREGLILFTYLHLAADRGLTEAMLRSGVTGIAYETVQLPDGTLPLLVPMSEVAGRMAPQVGAQFLEKPKGGRGVLLGGVPGVAPASVVILGGGTVGTNAAKIALGMGAQVTILDVNHKRLQYLDDVFGGRVITLTATEANIKKSVQHADLLIGAVLVPGAKAPKLVTRDMLSLMKEGAVIVDVAVDQGGCVETIRPTTHAEPTYVVDGVVHYGVANMPGAVPRTSTFALTNQTLPYVLKLAEKGLDALLEDAALLKGLNTHKGRLTHPGVAEAFGLPYTPPEEALRG`
Resp: soluble

Req: Follow-up entry: `MNSSTANKQKGIQLIPFTVDKVVEQVNEIPPGVQLIHAPQVWEKSAKGKDIVVAVLDTGCDMNHIDLKDRIIGGRNFTKDYEGDPNIYLDNNGHGTHVAGTIAATENGVGVLGVAPLAKMLVLKVLAGDGSGSYEQIIEAIHYAVNWRGPNKERVRVISMSLGGPQDVPELHEAIQNAVKQDVLVVCAAGNNGDCNDNTEELDFPGAYSEVIEVGAVNLERKIACFSNSNQEIDLVAPGDEILSTYPEGKYAVLSGTSMATPHVAGALALLIKQCEREYGRKLSEPEIYAQLIKRTVPLGYERTSEGNGLIDLLKE`
Resp: not soluble
